test: soluble on expression in E. coli; label from the status in PepcDB or PDB records
metric name: soluble on expression in E. coli

Below: 6 sequences and their reported soluble on expression in E. coli.
MIGFAYLRLQKPSVYVIASQHFDGSIAAGLFESFGFKNIRGSSKKGGVKVLIEGLKRLKEGCDVAITPDGPKGPRHSIADGVIALAQKSGVGISACRVVCKNAWRLNTWDQFEIPKPFSEVYYYMLESVIIPKEWELSRAKEYLKTRMDSVGFEEPQRGLGALEHHHHHH; soluble
MSLAEIAYITAKADLPFWDTVGKGVKAVAEANGYAFSELDSKLSAEMQLNNVRQAIDRRVAGIVISPTNSKSAEEALILARRAKIPVAIADIGASGGDYVSFVKSDNYRGAYDVGTELAKAMKAQNWASGAYGMVTIELSRKNGQDRTNGFRDAMKDAGFPREIVLRQMKDYSAEETYRYVKEMLAAHPGLRGFFIETDQPVAGALRAIREAGKEKQLLLVSFDAMPDVVRLLKSGALVAVGMQQPYLMGSSAAGALVSRLRGHPPAKEILVPVLVATGRNVDQLMPVAARTVFGKPLKEGHHHHHH; soluble
MPVVERTTFLAGYSPQQVLDFCLEGANFPKIFPERVTPLGGLDINDLRISVGRQFSFLHWMFGVIPAKWTVVIREVGDRHFVDEMLKGPLRAFRHEHRVEAAEGGTLYTDRVTYRAIGGAPLEWLMVNAYMARIFDARHRNMLRLLSLEHHHHHH; soluble
MSLAKSVFYYHRCQFDVKDKYGDLKQRITELYHQHKGRYGYRRVTAALKQLDCHHNHKLIAKLMHDMKLSAKIRRQKYRSYKGQQGKIAKNYLKRQFHADKPNKRWLTDITEFKVGDDKLYLSPILDCYNNEIVSYTLSKRPTYDLVGKMLEDALAKTKACRDNKLMLHSDQGWHYQMRLFGQVLKQHGIKQSMSRKGNCLDNALMEGFFGTLKCETIYIEKPNSIEGLEKQIHEYIHYYNHERIQLKLKGLSPVKYRTQSLIEGHHHHHH; not soluble
MKEKIPFYNEKEFHYMMKKTKKGTFSGWYIINPENNSVEFSGSFNRQFKLNKPVIPVNTEYVTRKEFNEYKDSNDQRLTKIENKVDKLEIKVDKLEKKVDKLEVKVDKLVETVNAQGEDLNNFKVEVRGTLQSQGETLQLILQTLQGMSKRLDSVEGRLDSMDGRLDSMETRLDKIDPLKLEHHHHHH; not soluble
MYGSEGGAMRIVAGVGENRNMERAASLADFEVDLVHSEEEFIEELRRGAAAYVRGSLPAANIMAELKKGGPLNRASWIEVGANGFLLAPVGIDEGRTVDDRFKIAVSASEFLRKTGEEPRVGVISGGRRGDLGRSPEVDRSIHEGEFLTSMIKDKYRVRHYHILIEEAVADGCNVIIAPDGITGNLIFRSLVLVGTARSYGAVALGFDGIFVDTSRSQTAEGYLRALKFAHWLARGWNEDNE; soluble

response.value for MAHHHHHHMIIEKGEPLNKEIIDHVLDHVTEFPTPTMVSVGDGKADCIVLENFLTHEECDQLVAACEKVGYTFWLQKNHHDADGEATCDSGSKAVRVVDTIEANFPHLSAKLYERIARVVSLKPKCFSEDMPNAEELFERELAGTWVPHALSENLLFGRYHPGGHFMPHVDGATILDLNTRSFYTLLIYLNDCLHGGETFIFAGEQCNVMYLDEKENQYRGNATQRVGAVYPKKGSAAFFYYNLLHEGAPVLEGHKYICRADLLYHRTPTIFTSEADEKAFKAYQEARLAESHGDAERACQLFQRVRKLSKGVASIFQIE (field: soluble on expression in E. coli) = soluble

# soluble on expression in E. coli (sequence: MGSDKIHHHHHHMHTFLASSSMQLSVPPNHFQSMKIVALGDSLIYGFGDPEKGGWIEQLRRWWMLPDSAGHVLYNLGVRGDRTQQVAQRLEVEFRHRGELRNRVPDLIILSVGVNDSARLARPDGRSYTDFTLFEKEIATLLDLAQQLCPVLFVGMVPVDEAKMPFLDCFYYNHVDQYRYKEATRLACTKRQIPYLDIFEKWMERGENWRLKRLSEDGLHPNTLGYQALLEDVINWDAIHSVGFANAAYHSQFNYHLKQS ) is not soluble

soluble on expression in E. coli for MAANSLPTNVASPVQTTTPTTDKRSIGFIDRQLGTNPAELPPLPYGYDALEKAIDAETMKLHHDKHHAAYVNNLNNALKKHPELQNSSVEALLRDLNSVPEDIRTTVRNNGGGHLNHTIFWQIMSPDGGGQPTGDIAQEINQTFGSFEEFKKQFNQAGGDRFGSGWVWLVRNPQGQLQVVSTPNQDNPIMEGSYPIMGNDVWEHAYYLRYQNRRPEYLNNWWNVVNWSEINRRTQASRQSNSHHHHHH is soluble

Lab note: measured soluble on expression in E. coli of EMVKLQSVITGSMQTGRSRARIEQAVVALLTYVEEETDAFQILVRDMKAGQDHSYSTLLNDAVEQVSHILGQAFERSGLNPKNATLYAQALVGMVSMTAQWWLDRRKEPNAATKEQVAAHIVNLCWNGLAGMEANPQLSNIDSPPETLGAH was not soluble

The measured soluble on expression in E. coli associated with SQEKVSIEQQLAVESIRKFLNSKTSYDVLPVSYRLIVLDTSLLVKKSLNVLLQNSIVSAPLWDSKTSRFAGLLTTTDFINVIQYYFSNPDKFELVDKLQLDGLKDIERALGVDQLDTASIHPSRPLFEACLKMLESRSGRIPLIDQDEETHREIVVSVLTQYRILKFVALNCRETHFLKIPIGDLNIITQDNMKSCQMTTPVIDVIQMLTQGRVSSVPIIDENGYLINVYEAYDVLGLIKGGIYNDLSLSVGEALMRRSDDFEGVYTCTKNDKLSTIMDNIRKARVHRFFVVDDVGRLVGVLTLSDILKYILLGS reads soluble

MAHHHHHHMYYIYFENVKDEKEKKECEEFIYQIYMMENIKKDAILKLKNEKNENLYLLYLYYKYYYMNDKENVLNEIKQLNTSSCNANILKSRIFFDNDLLDECFDLLENGTIEIKAAKIFFLLNINRQDIVNEIIKDFLHMNEEIPIIKIVLAIYYLFNDNNKESFLIFDDLESLYGSMINDHSNIILNGKAVASILNYEFNDAKEFLKNQINNGDILYNLITCSLYLYELDEANEYLTKLYDNYSSHDSLKVLKKIDDEVDNFVSEF has a reported soluble on expression in E. coli of not soluble

###

experiment: soluble on expression in E. coli; label from the status in PepcDB or PDB records
metric name: soluble on expression in E. coli

PAKLGYWKIRGLQQPVRLLLEYLGEKYEEQIYERDDGEKWFSKKFELGLDLPNLPYYIDDKCKLTQSLAILRYIADKHGMIGTTSEERARVSMIEGAAVDLRQGISRISYQPKFEQLKEGYLKDLPTTMKMWSDFLGKNPYLRGTSVSHVDFMVYEALDAIRYLEPHCLDHFPNLQQFMSRIEALPSIKAYMESNRFIKWPLNGWHAQFGGGDAPP; soluble
MTTQNELLNRIAELETKVAFQDNVIEELNQVLIHHQFVLDKLQTQVRHFANKFKNIQSSNVASQAEETPPPHY; soluble
NSRVSDLDLELLFQDRAARLGKSISRLIVVASLIDKPTNLGGLCRTCEVFGASVLVVGSLQCISDKQFQHLSVSAEQWLPLVEVKPPQLIDYLQQKKTEGYTIIGVEQTAKSLDLTQYCFPEKSLLLLGNEREGIPANLIQQLDVCVEIPQQGIIRSLNVHVSGALLIWEYTRQQLLSHGDTKP; soluble

###

experiment: soluble on expression in E. coli; label from the status in PepcDB or PDB records
metric name: soluble on expression in E. coli

Would you please look over these solved cases?
MSLAPRDLIDIDRIFMEPAVADYPRGREILSRFPNAERIAVPSHWNIPELHGNEGSVEDWVRIKRSTLVLGVKKGLAMRPNGRSAHFIAPSTSNGCAMACAYCYVPRRKGFSNPISLFVNVEAVSAAIARHAAKQGPLPEPDQIDEAAWVYDLGENGDLSVDAMICDTVRDLVGLFRTLPNAKGSFATKAVNRDLLAYDPQGRTRIRFSLMPAPIARVVDVRTAPIRERIAAIDDFVAAGYEVHVNFSPVILYEGWEADWAELFAEIDGSISDAAKAQLKCEIIMLTHNAGLHEVNLGWHPKAEALLWRPDIQETKRSEGGGDNLRYRTGEGHHHHHH; not soluble
MSLSNLTIDVQTVTQKGKKPYIEYQINRPSFHNFSDSKFQNKLNFYYKKSTDKFKTRLEKDAKKYYKETEGSSTPFHPYVANVDYKVSLNKPPLLSLYLNYYQYTGGAHGMYTWKANTFDLKEKKLLHLDDLFQQEDKYKEVIRAEIVRKIKQNEGIYFPDATEKVMSTKKFHFFLEPNNLVIYFPLYEIAPYSSGIPQFRIPYTLLREYLKPSYQNILIDNKEGHHHHHH; soluble
MIKILAACGAGVNSSHQIKSALEEELSNRGYDVHCDAVMVKDVNEDLMKGYDIFTPIAATDLGFEPGIPVIEAGPILFRIPAMSVPVFDNIRLPAKQNMV; not soluble
MDWGRFVEEKVREIRETVGDSKAIIALSGGVDSSTAAVLAHKAIGDRLHAVFVNTGFLRKGEPEFVVKTFRDEFGMNLHYVDAQDRFFSALKGVTDPEEKRKIIGRVFIEVFEEVAKKIGAEYLIQGTIAPDWIESQGKIKSHHNVGGLPEKLNLKLIEPLRDLYKDEVRELAKFLGLPEKIYNRMPFPGPGLAVRVIGEVTPEKIRIVREANAIVEEEVERAGLRPWQAFAVLLGVKTVGVQGDIRAYKETIAVRIVESIDGMTANAMNVPWEVLQRIAFRITSEIPEVGRVLYDITNKPPATIEFE; soluble
MGSDKIHHHHHHMTIATDSLKLITTVEQLKYYLIQAMKIEHATIPPYMTALYSIKPGKNLEAFHIIREVAVEEMLHLTLVANVYNAVGGSFASPVLTAPNFIPTYPSYLPTGSTDFKVGLTKFSKKTIETFRKIERSKDVEEGDPLVESRSLQEYLLEVVGCDPTKTFYSIGLFYAEIIRGLNALYKEKGPDLFCGDPRRQITPEYYYNGGGDIIPVTDLRSAMRALKVIQEQGEGSRSGTIYDAERELAHDYRFQQILLEKYYVIDKDDPTKSDQPNEPTGKSFNVDWNEVYPIKDNAKLSDYPEGSEVRTAALAFHSAYSEFLAKIEYAFDGHPEQLVPAVGGMFRLKEQANSLMRNPIPGNPGVNAAPIFKLDKR; not soluble

Kindly review the next sequence as well.
Lab note: measured soluble on expression in E. coli of MKLRTKIKRVRDVELPKYAKTGDSGFDLVAAEDTVIWPGETKVVPTGLAFEIPPGYELQVRPRSGMTRNTKLRVVLGTVDSGYRGEVGVLVDNTEIPKATNMQAHVIEKGTRIAQGVIVPVITAHFEEVDELSDSERGSGGFGSTGVK was not soluble

Cited source: the DeepSol protein solubility set
